Here the recorded binding is given for each entry.
System: Hsp90 CT
Assay: HSP90 domain binders, late-stage follow-up, orthogonal assay for selective HSP90 inhibitor project, biophysical, surface plasmon resonance (AID 652181)
Details: Surface plasmon resonance binding to HSP90 domains, at 200 µM, stronger effect = higher value
Just the number.

// below: answered molecules
CCOC(=O)c1csc(NC(=O)c2cc3ccccc3o2)n1	6.43
Cc1c(-c2nc(-c3ccc(C(F)(F)F)cc3)no2)n(C)oc1=O	7.47

Please look at the following molecule next.
Challenge: # query: binding of entry Cc1cc(NO)nc(-c2ccc(Br)cc2)n1
Response given: 0.77

###

Test system: Hsp90 CT
Assay: HSP90 domain binders, late-stage follow-up, orthogonal assay for selective HSP90 inhibitor project, biophysical, surface plasmon resonance (AID 652181)
Conditions: Surface plasmon resonance binding to HSP90 domains, at 200 µM, stronger effect = higher value
endpoint: binding
When you answer, write just the number.

Example entries begin here.
COc1cc(/C=N/Nc2ccc(Cl)c(C(=O)O)c2)ccc1OC(=O)c1ccc(F)cc1	-4.19
CC(=O)Nc1ccccc1OCC(=O)c1cc(C)n(Cc2cccs2)c1C	10.6

Shift focus to the following entry.
Challenge: Request the reported binding associated with CCOC(=O)C1=C(c2ccc(OC)cc2)C(=O)c2ccccc2C1=O
Response given: 11.2
